Data provenance is paper PMC5418593.

target: hEXOG wild type (hEXOG-dN58) (human, UniProt Q9Y2C4 59-368, del2-58); experiment: EMSA; 20 mM EDTA; apparent Kd; EK140: 20 mM HEPES pH 7.5, 140 mM KCl, 1 mM TCEP, 5% glycerol; plus 20 mM EDTA for anisotropy and EMSA (gel at 4 C, 0.5x TBE with 20 mM EDTA); ITC in EK140 at 20 C; conditions: protein: recombinant; tags: C-terminal His-tag; chain copies: 2; label: 5'-32P; 10 bp duplex
property: pKd
# reply with the number alone; pKd is -log10 of concentration in mol/L

The reported value for 10 bp dsDNA, 5'-32P (dsDNA, 5'-phosphate (32P)) DNA 1: CTGACGTGCG DNA 2: CGCACGTCAG in terms of pKd is 8.47
